Attribution: ChEMBL document CHEMBL1201862

tested on: NCI-H226; assay: NCI tumour cell line growth inhibition, 48 h
Calls of active or inactive are those of the source. No stated cut-off is given here; in the data, active = GI50 up to about 1.1 µM and inactive = higher.
measurement-kind: GI50

| compound | GI50 |
| --- | --- |
| COC(=O)N1C=CC2=C(C)C3Nc4ccccc4C3C(C)=C2C1 (stereo not given) | 1.61 µM (inactive) |
| COC(=O)C1(CCCCCBr)CCCCCCCCCCC1=O (stereo not given) | 23.6 µM (inactive) |
| CCOc1ccc(NC2=CC(=O)C(=O)c3ccccc32)cc1 | 4.86 µM (inactive) |
| CC(C)OP(=O)(OC(C)C)/C(C#N)=C/c1ccco1 | > 100 µM (inactive) |
| CCCCC(=O)Nc1ccc2cc(C(=O)OC)c(ON3C(=O)c4ccccc4C3=O)nc2n1 | 22.5 µM (inactive) |
| O=C1c2cc3c(cc2CC12Cc1cc4c(cc1C2=O)CCC4)CCC3 | > 100 µM (inactive) |
| COC(=O)C1=CC2C=CC(C1C(=O)OC)C1C(C(=O)OC)=C(C(=O)OC)C(C(=O)OC)=C(C(=O)OC)C21OC (stereo not given) | > 100 µM (inactive) |
| O=C1C=CC[C@H]2O[C@@H](COC(=O)Cc3ccccc3)C[C@H]2O1 | 35.4 µM (inactive) |
| COc1cc(CCN(C)C)cc(OC)c1OC | > 100 µM (inactive) |

# evaluate next
Would you mind telling me what GI50 value was observed for COc1cc(/C=C2\CCC(C)C3=C(c4cc(OC)c(OC)c(OC)c4)C(C#N)=C(N)OC32)cc(OC)c1OC (stereo not given) ? 2.98 µM (inactive)
